ASSAYED SYSTEM: UniProt P0DTD1
PROTOCOL DESCRIPTION: FRET enzymatic inhibition assay on M^pro
Format: biochemical
TEST PARAMETERS: FRET, 0.2 μM protein, 20 μM substrate; read-out: IC50 on M^pro
MEASUREMENT NAME: pIC50
pIC50 is defined as minus the log10 of a concentration measured in mol/L.

So what pIC50 did C[C@@H]1O[C@@H](O[C@H]2[C@H](Oc3cc(O)c4c(=O)cc(-c5ccc(O)cc5)oc4c3)O[C@H](CO)[C@@H](O)[C@@H]2O)[C@H](O)[C@H](O)[C@H]1O [RHO, rhoifolin] get with UniProt P0DTD1? 4.67

###

ASSAYED SYSTEM: UniProtKB P0DTC2
MEASUREMENT NAME: Kd (nM)
Expressed in nM, but write only the number.

See these solved cases before continuing.
>  <COMPOUND>
O=C(OC[C@H]1OC(O)[C@@](O)(COC(=O)c2cc(O)c(O)c(O)c2)[C@@H]1O)c1cc(O)c(O)c(O)c1 (stereo partly drawn)

>  <Kd (nM)>
93.3

$$$$
>  <COMPOUND>
C[C@@H]1O[C@@H](O[C@H]2[C@H](Oc3cc(O)c4c(=O)cc(-c5ccc(O)cc5)oc4c3)O[C@H](CO)[C@@H](O)[C@@H]2O)[C@H](O)[C@H](O)[C@H]1O

>  <Kd (nM)>
7070

$$$$

Please examine the following record next.
Item `O=C(O[C@@H]1O[C@@H]2COC(=O)c3cc(O)c(O)c(O)c3-c3c(cc(O)c(O)c3O)C(=O)O[C@H]([C@H]1O)[C@@H]2O)c1cc(O)c(O)c(O)c1` has what recorded Kd? 192

###

PROTOCOL DESCRIPTION: MTT cell viability assay in RAW 264.7 cells
Assay type: cell-based
TEST PARAMETERS: mouse
Each entry below lists one item and its recorded CC50 at 24 h value.

>  <MOLECULE>
C[C@@H]1O[C@@H](O[C@H]2[C@H](Oc3cc(O)c4c(=O)cc(-c5ccc(O)cc5)oc4c3)O[C@H](CO)[C@@H](O)[C@@H]2O)[C@H](O)[C@H](O)[C@H]1O

>  <MEASUREMENT NAME>
CC50 at 24 h

>  <RESULT>
> 100 µM

$$$$

Now examine the next entry.
Need CC50 at 24 h, item `O=C(O[C@@H]1O[C@@H]2COC(=O)c3cc(O)c(O)c(O)c3-c3c(cc(O)c(O)c3O)C(=O)O[C@H]([C@H]1O)[C@@H]2O)c1cc(O)c(O)c(O)c1` > 100 µM

###

PROTOCOL DESCRIPTION: in vitro
TEST PARAMETERS: African green monkey
MEASUREMENT NAME: CC50 at 48 h

Fill in: CC50 at 48 h of O=C(O[C@@H]1O[C@@H]2COC(=O)c3cc(O)c(O)c(O)c3-c3c(cc(O)c(O)c3O)C(=O)O[C@H]([C@H]1O)[C@@H]2O)c1cc(O)c(O)c(O)c1 [COR, corilagin] is ___ > 100 µM

###

ASSAYED SYSTEM: SARS-CoV-2 PL^pro (Severe acute respiratory syndrome coronavirus 2)
PROTOCOL DESCRIPTION: FRET enzymatic inhibition assay on PL^pro
Type: biochemical
TEST PARAMETERS: FRET, 1 μM protein, 10 μM substrate; read-out: IC50 on PL^pro
MEASUREMENT NAME: IC50

Could you share which IC50 value was measured for `C[C@@H]1O[C@@H](O[C@H]2[C@H](Oc3cc(O)c4c(=O)cc(-c5ccc(O)cc5)oc4c3)O[C@H](CO)[C@@H](O)[C@@H]2O)[C@H](O)[C@H](O)[C@H]1O` ? > 100 µM

###

ASSAYED SYSTEM: SARS-CoV-2 M^pro (Severe acute respiratory syndrome coronavirus 2, UniProt P0DTD1)
PROTOCOL DESCRIPTION: FRET enzymatic inhibition assay on M^pro
Type: biochemical
MEASUREMENT NAME: pIC50
Worth noting: pIC50 values are minus log10 of concentrations stated in mol/L.

If you can, please state the reported pIC50 value of `O=C(O[C@@H]1O[C@@H]2COC(=O)c3cc(O)c(O)c(O)c3-c3c(cc(O)c(O)c3O)C(=O)O[C@H]([C@H]1O)[C@@H]2O)c1cc(O)c(O)c(O)c1` . 6.14

Attribution: paper PMC12640959
